src = patent EP0840781B1

- Test system: Salmonella typhimurium tester strains TA97a, TA98, TA100, TA102, TA1537 and TA1538
- MEASUREMENT_PARAMETERS: 5 µg/plate
Answer each item with its documented revertant colonies, TA100 -S9.
Numbers only.

The cases that follow already have their revertant colonies, TA100 -S9 on record.
INSERT INTO measurements (compound, value_measured) VALUES
  ('Cc1oc2c(C)c3oc(=O)cc(C)c3cc2c1COCCCN', -41),
  ('Cc1oc2c(C)c3oc(=O)cc(C)c3cc2c1COCCN', 103),
  ('Cc1oc2c(C)c3oc(=O)cc(C)c3cc2c1CN [AMT, 4''-Aminomethyl-4,5'',8-trimethylpsoralen, reference compound]', 59),
  ('Cc1oc2c(C)c3oc(=O)cc(C)c3cc2c1CNCCN', 292);

Shift focus to the following entry.
Form: item Cc1oc2c(C)c3oc(=O)cc(C)c3cc2c1CCN ; test system Salmonella typhimurium tester strains TA97a, TA98, TA100, TA102, TA1537 and TA1538; revertant colonies, TA100 -S9: 47

* * *

Answer each item with its documented revertant colonies, TA1538 -S9.
- System: Salmonella typhimurium tester strains TA97a, TA98, TA100, TA102, TA1537 and TA1538
- MEASUREMENT_PARAMETERS: 5 µg/plate
Numbers only.

The cases that follow already have their revertant colonies, TA1538 -S9 on record.
INSERT INTO assay_data (compound, measure, value_measured) VALUES
  ('Cc1oc2c(C)c3oc(=O)cc(C)c3cc2c1CCN [Compound 3]', 'revertant colonies, TA1538 -S9', 0),
  ('Cc1oc2c(C)c3oc(=O)cc(C)c3cc2c1CN [AMT, 4''-Aminomethyl-4,5'',8-trimethylpsoralen, reference compound]', 'revertant colonies, TA1538 -S9', 13),
  ('Cc1oc2c(C)c3oc(=O)cc(C)c3cc2c1COCCCN [Compound 4]', 'revertant colonies, TA1538 -S9', -2),
  ('Cc1oc2c(C)c3oc(=O)cc(C)c3cc2c1CNCCCCN [Compound 6]', 'revertant colonies, TA1538 -S9', -5),
  ('Cc1oc2c(C)c3oc(=O)cc(C)c3cc2c1CNCCN [Compound 1]', 'revertant colonies, TA1538 -S9', 10);

Shift focus to the following entry.
Value of revertant colonies, TA1538 -S9 reported for the compound Cc1oc2c(C)c3oc(=O)cc(C)c3cc2c1COCCN [Compound 2] is -8

* * *

Answer each item with its documented revertant colonies, TA100 +S9.
- Tested on: Salmonella typhimurium tester strains TA97a, TA98, TA100, TA102, TA1537 and TA1538
- MEASUREMENT_PARAMETERS: 10 µg/plate
- Experimental: The second property that is important in testing a compound for use in methods described herein is mutagenicity. The most widely used mutagen/carcinogen screening assay is the Ames test. […] The first tests done with the strains were to determine the range of spontaneous reversion for each of the strains. With each mutagenicity experiment the spontaneous reversion of the tester strains to histidine independence was measured and expressed as the number of spontaneous revertants per plate. […]
Answers are plain numbers.

The cases that follow already have their revertant colonies, TA100 +S9 on record.
INSERT INTO measurements (compound, value_measured) VALUES
  ('Cc1oc2c(C)c3oc(=O)cc(C)c3cc2c1CN [AMT, 4''-Aminomethyl-4,5'',8-trimethylpsoralen, reference compound]', 17),
  ('Cc1oc2c(C)c3oc(=O)cc(C)c3cc2c1CNCCN [Compound 1]', -22),
  ('Cc1oc2c(C)c3oc(=O)cc(C)c3cc2c1CCN [Compound 3]', 8),
  ('Cc1oc2c(C)c3oc(=O)cc(C)c3cc2c1COCCN [Compound 2]', 1);

Shift focus to the following entry.
Value of revertant colonies, TA100 +S9 reported for the compound Cc1oc2c(C)c3oc(=O)cc(C)c3cc2c1COCCCN [Compound 4] is -3

* * *

- Test system: Salmonella typhimurium tester strains TA97a, TA98, TA100, TA102, TA1537 and TA1538
- MEASUREMENT_PARAMETERS: 10 µg/plate
MEASURE: revertant colonies, TA1538 +S9

INSERT INTO assay_data (compound, value_measured) VALUES
  ('Cc1oc2c(C)c3oc(=O)cc(C)c3cc2c1CN [AMT, 4''-Aminomethyl-4,5'',8-trimethylpsoralen, reference compound]', 255);

Please go through the list and note revertant colonies, TA1538 +S9 for each compound.
1. Cc1oc2c(C)c3oc(=O)cc(C)c3cc2c1CNCCCCN
2. Cc1oc2c(C)c3oc(=O)cc(C)c3cc2c1COCCCN

Result ::
8
-2

Please go through the list and note revertant colonies, TA1538 +S9 for each compound.
1. Cc1oc2c(C)c3oc(=O)cc(C)c3cc2c1CCN
2. Cc1oc2c(C)c3oc(=O)cc(C)c3cc2c1COCCN
3. Cc1oc2c(C)c3oc(=O)cc(C)c3cc2c1CNCCN

Result ::
1: 9; 2: 4; 3: 22

* * *

- Test system: Salmonella typhimurium tester strains TA97a, TA98, TA100, TA102, TA1537 and TA1538
- MEASUREMENT_PARAMETERS: 10 µg/plate
Answer each item with its documented revertant colonies, TA1538 -S9.
One number for each entry.

The cases that follow already have their revertant colonies, TA1538 -S9 on record.
INSERT INTO assay_data (molecule, value_measured) VALUES
  ('Cc1oc2c(C)c3oc(=O)cc(C)c3cc2c1COCCCN [Compound 4]', -2),
  ('Cc1oc2c(C)c3oc(=O)cc(C)c3cc2c1CNCCN [Compound 1]', 12),
  ('Cc1oc2c(C)c3oc(=O)cc(C)c3cc2c1COCCN [Compound 2]', -13),
  ('Cc1oc2c(C)c3oc(=O)cc(C)c3cc2c1CCN [Compound 3]', -6),
  ('Cc1oc2c(C)c3oc(=O)cc(C)c3cc2c1CN [AMT, 4''-Aminomethyl-4,5'',8-trimethylpsoralen, reference compound]', 14);

Shift focus to the following entry.
Value of revertant colonies, TA1538 -S9 reported for the molecule Cc1oc2c(C)c3oc(=O)cc(C)c3cc2c1CNCCCCN [Compound 6] is -2

* * *

Answer each item with its documented HIV Log Kill.
- System: HIV-1
- MEASUREMENT_PARAMETERS: 32 µM; 1 Minute Irradiation; HIV Starting Titer Approximately 5 Logs (Table 10)
One number for each entry.

The cases that follow already have their HIV Log Kill on record.
INSERT INTO measurements (molecular_string, system_tested, value_measured) VALUES
  ('Cc1oc2c(C)c3oc(=O)cc(C)c3cc2c1CNCCCN', 'HIV-1', 1.3),
  ('Cc1oc2c(C)c3oc(=O)cc(C)c3cc2c1COCCCN', 'HIV-1', 2.2),
  ('Cc1oc2c(C)c3oc(=O)cc(C)c3cc2c1CNCCCCN', 'HIV-1', 3.1),
  ('Cc1oc2c(C)c3oc(=O)cc(C)c3cc2c1COCCN', 'HIV-1', 3.8),
  ('Cc1oc2c(C)c3oc(=O)cc(C)c3cc2c1COCCOCCN', 'HIV-1', 2.1),
  ('Cc1oc2c(C)c3oc(=O)cc(C)c3cc2c1CCN', 'HIV-1', 2.7);

Shift focus to the following entry.
Form: item Cc1oc2c(C)c3oc(=O)cc(C)c3cc2c1COCCOCCNCCCCN ; test system HIV-1; HIV Log Kill: 1.9

* * *

- System: Salmonella typhimurium tester strains TA97a, TA98, TA100, TA102, TA1537 and TA1538
- MEASUREMENT_PARAMETERS: 10 µg/plate
Binary call on revertant colonies, TA100 -S9: 1.0 from 50 upward, 0.0 beneath that.

INSERT INTO measurements (compound, discrete_label) VALUES
  ('Cc1oc2c(C)c3oc(=O)cc(C)c3cc2c1CCN', 0.0),
  ('Cc1oc2c(C)c3oc(=O)cc(C)c3cc2c1CNCCN', 1.0),
  ('Cc1oc2c(C)c3oc(=O)cc(C)c3cc2c1COCCN', 0.0),
  ('Cc1oc2c(C)c3oc(=O)cc(C)c3cc2c1CN [AMT, 4''-Aminomethyl-4,5'',8-trimethylpsoralen, reference compound]', 1.0);

Query :: Please tell me: is the compound Cc1oc2c(C)c3oc(=O)cc(C)c3cc2c1COCCCN at or over 50 in terms of revertant colonies, TA100 -S9?
Result :: 0.0
